Where do the numbers come from? From ChEMBL document CHEMBL1201862.

Tested on: UO-31
Assay: NCI tumour cell line growth inhibition, 48 h
The source made the active and inactive calls. Cut-off read from the data, not from the text of the source: active = GI50 up to about 1.1 µM and inactive = higher.
MEASURED_PARAMETER: GI50

Previously resolved entries follow.
S=C=NCCc1ccccc1 [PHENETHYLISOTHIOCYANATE]	1.59 µM (inactive)
CCCCC1Nc2ccccc2-c2ccnc(Cl)c21 (stereo unspecified)	20 µM (inactive)
OCc1cc2c(cn1)[nH]c1ccc(NCc3ccccc3)cc12	20.7 µM (inactive)
O=C(O)CNC(=O)C1NC(C(F)(F)F)(C(F)(F)F)OC1(C(F)(F)F)C(F)(F)F (stereo unspecified)	> 100 µM (inactive)
C=CCNC(=O)N(CCC)CCCC(NC(C)=O)C(=O)NCc1ccccc1 (stereo unspecified)	> 100 µM (inactive)

For this molecule ( CC1CC(c2ccccc2)=Nc2ccccc2S1 (stereo unspecified) ), measured GI50 is > 100 µM (inactive)

For reference, reported GI50 for O=C(CBr)NCCc1c[nH]c2ccccc12 stands at 1.72 µM (inactive)

Per the records, this molecule ( CCOC(=O)C1=C(C)N(c2ccc(C)cc2)C2=C(C(=O)N(c3ccccc3)C2c2ccccc2)C1c1ccccc1 (stereo unspecified) ) has GI50 equal to 21 µM (inactive)

Looking up COc1cccc(C2c3cc4c(cc3OC(N3CCOCC3)C2C)OCO4)c1 (stereo unspecified) , I found its GI50 recorded as 12.8 µM (inactive)

Reported GI50 for COC(=O)c1cc(NC(=O)Cn2c3ccccc3c3ccccc32)cn1C was 25 µM (inactive)

Value of measured GI50 for the entry CCC1(C(=O)OC)CCc2c(OC)ccc(OC)c2C1=O (stereo unspecified) : > 100 µM (inactive)
